system: E. coli TESEC Mtb Alr; assay: growth (OD600 after 10 h); higher = more growth (less inhibition); details: arabinose 1000000 nM; compound 0.1 mM; raw OD600 reference: median of DMSO wells 0.193, cell-free background 0.041
Counter-ions that a name gives are not always drawn.

{"columns": ["Compound", "growth"],
 "data": [
  ["O=C(O)Cc1sc(-c2ccccc2)nc1-c1ccc(Cl)cc1 [Fentiazac]", 0.152],
  ["Cc1ccnc(NS(=O)(=O)c2ccc(N)cc2)n1 [Sulfamerazine]", 0.154],
  ["CN1CCC(=C2c3ccccc3CCc3cccnc32)CC1 [Azatadine maleate]", 0.18],
  ["O=C1CCc2cc(OCCCCc3nnnn3C3CCCCC3)ccc2N1 [Cilostazol]", 0.0688],
  ["COC(=O)N/N=C/c1c[n+]([O-])c2ccccc2[n+]1[O-] [Carbadox]", 0.117],
  ["CCCN(CCC)CCc1cccc2c1CC(=O)N2 [Ropinirole HCl]", 0.18],
  ["CC(CN1c2ccccc2Sc2ccccc21)N(C)C (stereo unspecified) [Promethazine hydrochloride]", 0.13],
  ["C=C1/C(=C\\C=C2/CCC[C@]3(C)[C@@H]([C@H](C)CCCC(C)C)CC[C@@H]23)C[C@@H](O)C[C@@H]1O [Alfacalcidol]", 0.065],
  ["CC(=O)CC(c1ccc([N+](=O)[O-])cc1)c1c(O)c2ccccc2oc1=O (stereo unspecified) [Acenocoumarol]", 0.167],
  ["OCCN1CCN(CCCN2c3ccccc3Sc3ccc(Cl)cc32)CC1 [Perphenazine]", 0.0417],
  ["O=C(O)c1cc(-c2ccc(F)cc2F)ccc1O [Diflunisal]", 0.086],
  ["Cc1ccc(/C(=C\\CN2CCCC2)c2ccccn2)cc1 [Triprolidine hydrochloride]", 0.176],
  ["CNC(C)CCC=C(C)C (stereo unspecified) [Isometheptene mucate]", 0.177],
  ["CNC(=O)c1c(I)c(C(=O)NCC(=O)Nc2c(I)c(C(=O)O)c(I)c(C(=O)NCCO)c2I)c(I)c(N(C)C(C)=O)c1I [Ioxaglic acid]", 0.215],
  ["Nc1nnc(-c2cccc(Cl)c2Cl)c(N)n1 [Lamotrigine]", 0.21],
  ["c1ccc2c(CC3=NCCN3)cccc2c1 [Naphazoline hydrochloride]", 0.189],
  ["CSc1ccc2c(c1)N(CCC1CCCCN1C)c1ccccc1S2 (stereo unspecified) [Thioridazine hydrochloride]", 0.0391],
  ["COc1ccc(C2CNC(=O)C2)cc1OC1CCCC1 (stereo unspecified) [Rolipram]", 0.198],
  ["COc1ccc([C@@H]2Sc3ccccc3N(CCN(C)C)C(=O)[C@@H]2OC(C)=O)cc1 [Diltiazem hydrochloride]", 0.139],
  ["Cc1ccc(NC(=O)c2ccc(CN3CCN(C)CC3)cc2)cc1Nc1nccc(-c2cccnc2)n1 [Imatinib]", 0.119],
  ["CC1(C)S[C@@H]2[C@H](NC(=O)[C@H](N)c3ccc(O)cc3)C(=O)N2[C@H]1C(=O)O [Amoxicillin]", 0.186],
  ["CNCCC=C1c2ccccc2CCc2ccccc21 [Nortriptyline hydrochloride]", 0.0683],
  ["COc1ccc2c3c1O[C@H]1C[C@@H](O)C=C[C@@]31CCN(C)C2 [Galanthamine hydrobromide]", 0.161],
  ["COc1ccc2[nH]c([S+]([O-])Cc3ncc(C)c(OC)c3C)nc2c1 (stereo unspecified) [Omeprazole]", 0.122],
  ["CC(C(=O)O)c1ccc2c(c1)[nH]c1ccc(Cl)cc12 (stereo unspecified) [Carprofen]", 0.0781],
  ["CO/N=C(\\C(=O)N[C@@H]1C(=O)N2C(C(=O)O)=C(COC(C)=O)CS[C@H]12)c1csc(N)n1 [Cefotaxime sodium salt]", 0.0402],
  ["O=C1CC[C@@H](C(=O)N2CSC[C@H]2C(=O)O)N1 [Pidotimod]", 0.217],
  ["CN[C@@H]1[C@@H](O)[C@@H](O[C@@H]2[C@@H](O)[C@H](O[C@H]3OC(CN)=CC[C@H]3N)[C@@H](N)C[C@H]2N)OC[C@]1(C)O [Sisomicin sulfate]", 0.0422],
  ["C(=C\\c1ccccc1)/CN1CCN(C(c2ccccc2)c2ccccc2)CC1 [Cinnarizine]", 0.147],
  ["OCCN1CCN(CCCN2c3ccccc3Sc3ccc(C(F)(F)F)cc32)CC1 [Fluphenazine dihydrochloride]", 0.0387],
  ["NNC(=O)c1ccncc1 [Isoniazid]", 0.186]
]}
